Source listed as ChEMBL document CHEMBL1133927.

Test system: Mus musculus
Test: Mean survival time of mice (Mus musculus) infected with Plasmodium berghei after administration of compound at the dose of 160 mg/kg
Type: functional
readout.name: Mean survival time (days)
Response body: numeric value in days, unit text excluded.

Here's what some known entries look like.
- molecule: "CC(C)=CCCC(C)CCN(COOC(C)(C)C)Cc1ccccc1 (stereo unspecified)"
  target: "Mus musculus"
  readout.name: "Mean survival time"
  readout.units: "days"
  experimental.result: 12.2
- molecule: "CC(C)(C)OOCN(Cc1ccccc1)Cc1ccco1"
  target: "Mus musculus"
  readout.name: "Mean survival time"
  readout.units: "days"
  experimental.result: 12
- molecule: "CCN(CC)COOC(C)(C)C"
  target: "Mus musculus"
  readout.name: "Mean survival time"
  readout.units: "days"
  experimental.result: 12.2
- molecule: "CC(C)(C)OOCN1CCCCC1"
  target: "Mus musculus"
  readout.name: "Mean survival time"
  readout.units: "days"
  experimental.result: 10.2
- molecule: "CC(C)(C)OOCN(C1CCCCC1)C1CCCCC1"
  target: "Mus musculus"
  readout.name: "Mean survival time"
  readout.units: "days"
  experimental.result: 13.4
- molecule: "COC1=CC=C2[C@H]3Cc4ccc(OC)c5c4[C@@]2(CCN3COOC(C)(C)C)[C@H]1O5"
  target: "Mus musculus"
  readout.name: "Mean survival time"
  readout.units: "days"
  experimental.result: 7.2
- molecule: "CC(C)(C)OOCN1CCOCC1"
  target: "Mus musculus"
  readout.name: "Mean survival time"
  readout.units: "days"
  experimental.result: 11.4
- molecule: "CC(C)=CCCC(C)CCN(CCO)COOC(C)(C)C (stereo unspecified)"
  target: "Mus musculus"
  readout.name: "Mean survival time"
  readout.units: "days"
  experimental.result: 15

Ask: Annotate the molecule CC(C)(C)OOCN1CCCC1 with its measured Mean survival time.
Result: 11.8

Ask: Annotate the molecule CC(C)(C)OOCN(Cc1ccccc1)Cc1cccs1 with its measured Mean survival time.
Result: 14

Ask: Annotate the molecule CC(C)(C)OOCN(CCO)CCO with its measured Mean survival time.
Result: 14
